- Protocol Summary: In Vivo PK (Mouse)
- Particulars: male, CD1, mouse, in vivo, intravenous, 3 mpk
Quantity Measured: Vd

1) COc1cccc(CNc2ccc(S(=O)(=O)Nc3nc4ccccc4s3)cc2)c1O [Compound 35] = 0.55 L/kg

---

- Measured Target: human epithelial 15-lipoxygenase-2 (15-LOX-2) (Homo sapiens (Human))
- Sequence (O15296 whole entry): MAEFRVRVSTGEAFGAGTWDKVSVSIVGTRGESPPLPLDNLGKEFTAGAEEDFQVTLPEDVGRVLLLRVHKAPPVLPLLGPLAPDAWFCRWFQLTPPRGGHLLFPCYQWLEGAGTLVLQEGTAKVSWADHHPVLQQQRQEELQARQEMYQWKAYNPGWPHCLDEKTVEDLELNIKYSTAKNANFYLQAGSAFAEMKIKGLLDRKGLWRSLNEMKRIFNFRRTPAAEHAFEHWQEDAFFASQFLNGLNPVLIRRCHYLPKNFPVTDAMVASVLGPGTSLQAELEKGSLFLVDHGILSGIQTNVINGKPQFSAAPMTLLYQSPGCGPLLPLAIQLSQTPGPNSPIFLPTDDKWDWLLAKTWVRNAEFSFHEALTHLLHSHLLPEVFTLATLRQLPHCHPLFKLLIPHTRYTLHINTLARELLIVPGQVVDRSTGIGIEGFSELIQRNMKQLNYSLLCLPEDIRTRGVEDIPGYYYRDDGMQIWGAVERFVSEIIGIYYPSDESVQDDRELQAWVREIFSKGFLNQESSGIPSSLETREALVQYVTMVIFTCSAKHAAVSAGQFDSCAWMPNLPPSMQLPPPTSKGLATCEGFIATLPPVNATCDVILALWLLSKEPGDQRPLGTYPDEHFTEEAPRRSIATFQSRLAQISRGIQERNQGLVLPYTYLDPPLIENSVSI
pIC50: −log10 of the molar value.
Quantity Measured: pIC50

1) COc1cccc(CNc2ccc(S(=O)(=O)Nc3nccs3)cc2)c1O [Compound 1] = < 4.40

---

- Protocol Summary: In Vivo PK (Mouse)
- Particulars: male, CD1, mouse, in vivo, po, 30 mg/kg
Quantity Measured: AUC(0-inf) (µM·h)

1. COc1cccc(CNc2ccc(S(=O)(=O)Nc3nc4ccccc4s3)cc2)c1O = 67
